- procedure-details: yeast display, Sf9 membrane polyspecificity reagent, FACS + sequencing; frameworks hold sequencing errors
metric: polyreactivity (PSR sort gate)

Examples with answers:
| chain | reported-value |
| --- | --- |
| QVQLVESGGGLVQAGGSLRLSCAASGFTFYLYTMGWYRQAPGKERQLVAAISGSGGSTYYADSVKGRFTISRDNAKITVYLQMNSLKPEDTAVYYCAASPVRVGKVIDRRDYWGQGTQVTVSS | high polyreactivity |
| QVQLVESGGGLVQAGGSLRLSCAASGSTFDAYAMGWYRQAPGKERELVAAITNAGSTNYADSVKGRFTISRDNAKNTVYLQMNSLKPEDTAVYYCATDWYHRYLDGRYDYWGQGTQVTVSS | low polyreactivity |
| QVQLVESGGGLVQAGGSIRLSCAPSGSPNVTYDMGWYRQAPGKESELVASISRGGSTKYADSVKGRFTISRDNAKNTVFLQMNSLKPEDTAVFYGAAKAKNYRLGPYDYWGQGTQVTVSS | low polyreactivity |
| QVQLVESGGGLVQAGGSLRLSCAASGITIRFYAMGWYRQAPGKERELVAAITRGGSTTYADSVKGRFTISRDNAKNTVYLQMNSLKPEDTAVYYCNAQYQSGYYTSYPDRFDYWGQGTQVTVSS | low polyreactivity |
| QVQLVESGGGLVQAGGSLRLSCAASGYIFGRNAMGWYRQAPGKERELVAVISSRGSRTYYADSVKGRFTISRDNAKNTVYLQMNSLKPEDTAVYYCAVRGVVNFDYWGQGTQVTVSS | high polyreactivity |

Input: Fill blank: measured polyreactivity (PSR sort gate) of the sequence `QDQLVESGGRLVQAGGSLRLSCAASGFILSTYAMGWYRQAPGKERELVAAISSSGTSTYYADSVKGRFTISRDNAKNTVYLQMNSLKPEDTAVYYCARVSKRTWSGYYYWGQGTQVTVST` is ____.
Output: high polyreactivity

Input: Fill blank: measured polyreactivity (PSR sort gate) of the sequence `QVQLVESGGGLDQAGGSLRLSCAASGFIFRSYTMGWYRQEPRKEREFVPAITWTGGSTYYADSVKGRFTISRDNAKNTVYLQMNSLKPEDTAVYYCNAANWHYSTAPKPYAFDYWGQGTQVTVSS` is ____.
Output: low polyreactivity

* * *

- procedure-details: yeast display, Sf9 membrane polyspecificity reagent, FACS + sequencing; frameworks hold sequencing errors

| chain | polyreactivity (PSR sort gate) |
| --- | --- |
| QVQLVESGGGLVQAGGSLRLSCAASGFTFRSNAMGWYRQAPGKERELVAAITRGGGSTYYADSVKGRFTISRDNEKNTVYLQMNSLKPEDTAVYYCAAGGFRTSRRDYWGQGTQVTVSS | high polyreactivity |
| QVQLVESGGGLVQAGGSLRLSSAASGRTFYSNAMGWYRQAPGKEREFVAAINWSGTSTYADSVKGRFTISRDNAKNTVYLQMNSLKPEDTAVYYCAKTYRTLVRYWGQPFGYWGQGTQVTVSS | high polyreactivity |

* * *

- procedure-details: yeast display, Sf9 membrane polyspecificity reagent, FACS + sequencing; frameworks hold sequencing errors
metric: polyreactivity (PSR sort gate)

| chain | reported-value |
| --- | --- |
| QVQLVESGGGLVQAGGSLRLSCAASGFTFYIYGMGWYRPAPGKERELVAAITWSGGRTYYADSVKGRFTISRDNAKNTVYLHMNSLKPEDTAVYYCAASYPGLSYHKYEYWGHGTQVTVSS | high polyreactivity |
| QVQLVESGGGLVQAGGSLRLSCSASGHIFRTYAMGWYRQAPWKERELVAGITPNGDTTYYADSVKGRFTISRDHAKITVYLQMNSLKPEDTAVYYCDAQYSQRPADRYNSWGQGTQVTVSS | low polyreactivity |
| QVQLVESGGGLVQAGGSLRLSCAASGSILRSNAMGWYRQAPGKERELVAVISNDDSTYYADSVKGRFTISRDNATNTVYLQMNSLKPEDTAVYYCNAVYYYFFRWHPIYDSWGQGTQVTVSS | low polyreactivity |
| QVELVESGGGLVQPGGRLRLSCAASGFTFNYYAMGWYRQAPGKEREFVAAISRGGGRTYYADSVKGRFTISRDNAKNTVYLQMNSLKPEDTAVYYCAAQSVPYAYRLASYDYWGQGTQVTVSS | high polyreactivity |
| QVQLVESGGGLVQAGGSLRLSCAASGIIFYDYAMGWYRQAPGKERELVAAISRSGGSTYYADSVKGRFTISRDNAKNTVYLQMNSLKPEDTAVYYCAKDRDFSSPPTESGFDYWGQGTQVTVSS | low polyreactivity |
| QVQLVESGGGLVQAGGSLRLSCAASGSIFSGYVMGWSRQAPGKERELVAAISGSGGSTYYADSVKGRFTISRDNAKNTVYLQMNSLNPEDTAVYYCNKGLSRSYWWVDYWGQGTQVTVSS | low polyreactivity |

Input: Fill blank: measured polyreactivity (PSR sort gate) of the sequence `QVQLVESGGGLVQAGGSLRLSSAASGFTFVNYAMGWYRQAPGKERELVAAITRGGSTYYADSVKGRFTISRDNAKNTVYLNMNSLIPEDTAVYYCSARYFYLFRPTEYYYWGQGTQVTVSS` is ____.
Output: high polyreactivity
